Source listed as paper PMC5540273.

- System: CSNK1G1;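 note: KINOMEscan kinase panel screen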
- Condition description: concentration: 1 μM, replicates: in singlicate; n = 1
// returns 0 (no) unless %Inh is strictly below 2%, in which case 1 (yes)

Consider the following illustrative entries.
Enquiry: A record lists "Cl.NS(=O)(=O)c1cccc(Nc2cc(-c3ccc(F)cc3)n[nH]2)c1" . Is its %Inh below 2%?
Return: 0 (no)

Enquiry: Criterion: %Inh strictly below 2%. Is it met by "COC(=O)c1c(-c2ccccc2)c2cc(Br)ccc2c(=O)n1Cc1ccc(S(C)(=O)=O)cc1" ?
Return: 0 (no)

Enquiry: # TODO verify %Inh < 2% strictly for this compound: "COc1cc2nccc(Nc3cccc(Oc4ccccc4)c3)c2cc1OC.Cl"
Return: 1 (yes)

Enquiry: Is the reported %Inh for "CCC(=O)c1c(-c2ccccc2)c2cc(Cl)ccc2c(=O)n1Cc1cc(S(C)(=O)=O)n(CCC(C)(C)O)n1" strictly below 2%?
Return: 0 (no)

Enquiry: State whether 2% exceeds %Inh recorded for "Cl.c1ccc(Cn2cnc3cc(Nc4ncnc5ccccc45)ccc32)cc1" .
Return: 1 (yes)

Enquiry: Say whether its %Inh is strictly beneath 2%. Entry: "Cc1cccc(-c2nc(Nc3ccc4c(cnn4C)c3)c3ccccc3n2)n1"
Return: 0 (no)

Enquiry: Consider "Cc1ccc(-c2ccc3c(ccc4sc5c(c43)NC[C@@H](C)N=C5N(C)C)n2)cn1" . Does its %Inh lie strictly below 2%?
Return: 1 (yes)

Continuing:
Enquiry: Could you please tell me whether %Inh recorded for "CCCC(=O)Nc1n[nH]c2ncc(-c3cccc4ccccc34)cc12" is less than 2%?
Return: 0 (no)
